Recorded Bliss excess by entry
test system: T84 (Colorectal Carcinoma); experiment: Bliss excess, mean over the matrix (fraction); higher = more synergy;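 also: after 72 h of two-drug dosing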

>  <compound>
CC(=O)c1c(C)c2cnc(Nc3ccc(N4CCNCC4)cn3)nc2n(C2CCCC2)c1=O [Palbociclib] + CC1(C)CCC(CN2CCN(c3ccc(C(=O)NS(=O)(=O)c4ccc(NCC5CCOCC5)c([N+](=O)[O-])c4)c(Oc4cnc5[nH]ccc5c4)c3)CC2)=C(c2ccc(Cl)cc2)C1 [Venetoclax] (first compound max 10 µM, 7x7, partner max 1 µM)

>  <Bliss excess>
-0.0556

$$$$

Below: the item to evaluate.
Data request: Consider the compound shown here: O=C(c1cc(Cc2n[nH]c(=O)c3ccccc23)ccc1F)N1CCN(C(=O)C2CC2)CC1 [Olaparib] + COc1nnc2ccc(N3CCC(c4ccc(OCCN5CCN(C)C(=O)[C@H]5C)cc4)CC3)nn12 [AZD5153] (first compound max 10 µM, 7x7, partner max 1 µM) What is its recorded Bliss excess?
Data returned: -0.0698

====

tested on: BxPC-3 (Pancreatic Carcinoma); assay: combination Emax (second highest fraction inhibited in the dose matrix, 72 h); higher = more inhibition; extreme values may be limits of the assay
Recorded combination Emax by entry
Lab note: write the figure by itself, no unit.

# example entries with known answers
>  <compound>
Cc1c2c(nn1C)CSCc1cc(n(C)n1)CSc1cc(c3ccccc3c1)OCCCc1c(C(=O)O)n(C)c3c-2c(Cl)ccc13 [AZD5991] + Nc1ccn([C@@H]2O[C@H](CO)[C@@H](O)C2(F)F)c(=O)n1 [Gemcitabine] (first compound max 1 µM, 7x7, partner max 0.3 µM)

>  <endpoint.value>
0.47

$$$$
>  <compound>
CCN(CCO)CCCOc1ccc2c(Nc3cc(CC(=O)Nc4cccc(F)c4)[nH]n3)ncnc2c1 [AZD2811] + C[C@@H]1COCCN1C2=NC(=NC(=C2)C3(CC3)[S@](=N)(=O)C)C4=C5C=CNC5=NC=C4 [AZD6738] (first compound max 1 µM, 7x7, partner max 10 µM)

>  <endpoint.value>
0.447

$$$$
>  <compound>
COc1cccc(OCCCN)c1-c1cc(Nc2cnc(C#N)cn2)n[nH]1 [Prexasertib] + CCc1c2c(nc3ccc(O)cc13)-c1cc3c(c(=O)n1C2)COC(=O)[C@]3(O)CC [SN-38] (first compound max 1 µM, 7x7, partner max 0.3 µM)

>  <endpoint.value>
0.796

$$$$
>  <compound>
O=C(c1cc(Cc2n[nH]c(=O)c3ccccc23)ccc1F)N1CCN(C(=O)C2CC2)CC1 [Olaparib] + CN(CC[C@H](CSC1=CC=CC=C1)NC2=C(C=C(C=C2)S(=O)(=O)NC(=O)C3=CC=C(C=C3)N4CCC(CC4)[C@H](C5=CC=CC=C5C6=CC=C(C=C6)Cl)O)S(=O)(=O)C(F)(F)F)CCO [AZD4320] (first compound max 10 µM, 7x7, partner max 1 µM)

>  <endpoint.value>
0.148

$$$$
>  <compound>
COc1nnc2ccc(N3CCC(c4ccc(OCCN5CCN(C)C(=O)[C@H]5C)cc4)CC3)nn12 [AZD5153] + C[C@@H]1COCCN1C2=NC(=NC(=C2)C3(CC3)[S@](=N)(=O)C)C4=C5C=CNC5=NC=C4 [AZD6738] (first compound max 1 µM, 7x7, partner max 10 µM)

>  <endpoint.value>
0.602

$$$$

Data request: Consider the compound shown here: C[C@@H](Oc1cc(-c2cnn(C3CCNCC3)c2)cnc1N)c1c(Cl)ccc(F)c1Cl [Crizotinib] + CC1=C(C(=CC=C1)Cl)NC(=O)C2=CN=C(S2)NC3=CC(=NC(=N3)C)N4CCN(CC4)CCO [Dasatinib] (first compound max 10 µM, 7x7, partner max 2 µM) What is its recorded combination Emax?
Data returned: 0.938

Data request: Consider the compound shown here: COc1nnc2ccc(N3CCC(c4ccc(OCCN5CCN(C)C(=O)[C@H]5C)cc4)CC3)nn12 [AZD5153] + CC1(C)CCC(CN2CCN(c3ccc(C(=O)NS(=O)(=O)c4ccc(NCC5CCOCC5)c([N+](=O)[O-])c4)c(Oc4cnc5[nH]ccc5c4)c3)CC2)=C(c2ccc(Cl)cc2)C1 [Venetoclax] (first compound max 1 µM, 7x7, partner max 1 µM) What is its recorded combination Emax?
Data returned: 0.473
